tested on: NCI-H2087; experiment: relative viability (nuclei count vs DMSO), 5 days (fraction); higher = more cells survive; conditions: first compound 2 µM
// returns No unless relative viability is strictly below 0.7, in which case Yes

# example entries with known answers
Compound	Classification
Cc1csc(=NC2CCCCC2)n1/N=C/c1ccc(O)c(O)c1O [MIM1] + C[C@]1(O)C[C@@H](c2nc(-c3ccc4ccc(-c5ccccc5)nc4c3)c3c(N)nccn32)C1 [Linsitinib] (partner 1 µM)	No
CN1CCN(CCOc2cc(OC3CCOCC3)c3c(Nc4c(Cl)ccc5c4OCO5)ncnc3c2)CC1 [Saracatinib] + COc1cc2c(Oc3ccc(NC(=O)C4(C(=O)Nc5ccc(F)cc5)CC4)cc3F)ccnc2cc1OCCCN1CCOCC1 [Foretinib] (partner 0.25 µM)	No
CN1CCN(CCOc2cc(OC3CCOCC3)c3c(Nc4c(Cl)ccc5c4OCO5)ncnc3c2)CC1 [Saracatinib] + Cc1nc(Nc2ncc(C(=O)Nc3c(C)cccc3Cl)s2)cc(N2CCN(CCO)CC2)n1 [Dasatinib] (partner 0.075 µM)	Yes
CN1CCN(CCOc2cc(OC3CCOCC3)c3c(Nc4c(Cl)ccc5c4OCO5)ncnc3c2)CC1 [Saracatinib] + CS(=O)(=O)N1CCN(Cc2cc3nc(-c4cccc5[nH]ncc45)nc(N4CCOCC4)c3s2)CC1 [Pictilisib] (partner 1 µM)	No
Cc1csc(=NC2CCCCC2)n1/N=C/c1ccc(O)c(O)c1O [MIM1] + CC1(C)CCC(c2ccc(Cl)cc2)=C(CN2CCN(c3ccc(C(=O)NS(=O)(=O)c4ccc(N[C@H](CCN5CCOCC5)CSc5ccccc5)c(S(=O)(=O)C(F)(F)F)c4)cc3)CC2)C1 [Navitoclax] (partner 0.5 µM)	No

Problem: Lab log: compare recorded relative viability with 0.7; is it strictly lower for Cc1csc(=NC2CCCCC2)n1/N=C/c1ccc(O)c(O)c1O [MIM1] + CC(=O)c1c(C)c2cnc(Nc3ccc(N4CCNCC4)cn3)nc2n(C2CCCC2)c1=O [Palbociclib] (partner 0.5 µM) ?
Result: Yes

Problem: Lab log: compare recorded relative viability with 0.7; is it strictly lower for CN1CCN(CCOc2cc(OC3CCOCC3)c3c(Nc4c(Cl)ccc5c4OCO5)ncnc3c2)CC1 [Saracatinib] + Cc1cc(Nc2cc(N3CCN(C)CC3)nc(Sc3ccc(NC(=O)C4CC4)cc3)n2)n[nH]1 [Tozasertib] (partner 0.1 µM) ?
Result: Yes

Problem: Lab log: compare recorded relative viability with 0.7; is it strictly lower for CN1CCN(CCOc2cc(OC3CCOCC3)c3c(Nc4c(Cl)ccc5c4OCO5)ncnc3c2)CC1 [Saracatinib] + CC(=O)c1c(C)c2cnc(Nc3ccc(N4CCNCC4)cn3)nc2n(C2CCCC2)c1=O [Palbociclib] (partner 0.5 µM) ?
Result: Yes

Problem: Lab log: compare recorded relative viability with 0.7; is it strictly lower for Cc1csc(=NC2CCCCC2)n1/N=C/c1ccc(O)c(O)c1O [MIM1] + O=C(CCCCCCC(=O)Nc1ccccc1)NO [Vorinostat] (partner 1 µM) ?
Result: No

----------
system: IA-LM; experiment: relative viability (nuclei count vs DMSO), 5 days (fraction); higher = more cells survive; details: first compound 2.53 µM
Reported relative viability values follow for various molecules
Enter the number alone.

// solved cases for relative viability follow
Molecule	Test Target	relative viability
Nc1cccc2c1CN(C1CCC(=O)NC1=O)C2=O (centres undefined) [Lenalidomide] + CS(=O)(=O)N1CCN(Cc2cc3nc(-c4cccc5[nH]ncc45)nc(N4CCOCC4)c3s2)CC1 [Pictilisib] (partner 1 µM)	IA-LM	0.338
Nc1cccc2c1CN(C1CCC(=O)NC1=O)C2=O (centres undefined) [Lenalidomide] + Cc1nc(NC(=O)N2CCC[C@H]2C(N)=O)sc1-c1ccnc(C(C)(C)C(F)(F)F)c1 [Alpelisib] (partner 2 µM)	IA-LM	0.797
Nc1cccc2c1CN(C1CCC(=O)NC1=O)C2=O (centres undefined) [Lenalidomide] + C[C@]1(O)C[C@@H](c2nc(-c3ccc4ccc(-c5ccccc5)nc4c3)c3c(N)nccn32)C1 [Linsitinib] (partner 1 µM)	IA-LM	0.667

Here's the next entry for you.
Problem: What value of relative viability has been reported for the following molecule? Nc1cccc2c1CN(C1CCC(=O)NC1=O)C2=O (centres undefined) [Lenalidomide] + C[C@@H](Oc1cc(-c2cnn(C3CCNCC3)c2)cnc1N)c1c(Cl)ccc(F)c1Cl [Crizotinib] (partner 1 µM)
Result: 0.759
